All figures here come from ChEMBL document CHEMBL4393713.

# System: A549
# Experiment notes: Antiproliferative activity against human A549 cells assessed as inhibition of cell proliferation measured after 48 hrs by MTT assay
# Assay type: functional, cell-based
# Particulars: A549, 48 h
Quick rule for you: IC50 under 7 µM gets Fulfilled, anything else gets Not fulfilled.

Example entries begin here.
# Compound string, Category
rows = [
    ("COc1cccc2c1C(=O)c1c(O)c3c(c(O)c1C2=O)C[C@@](O)(C(=O)CO)C[C@@H]3O[C@H]1C[C@H](N)[C@H](O)[C@H](C)O1", "Fulfilled"),
    ("Cn1c(=O)c2[nH]c(SCC(=O)c3ccc(Br)cc3)nc2n(C)c1=O", "Not fulfilled"),
    ("COc1ccc(C(=O)CSc2nc3c([nH]2)c(=O)n(C)c(=O)n3C)cc1", "Not fulfilled"),
]

Please indicate whether the reported IC50 of "C/C(=N/O)c1ccc(NC(=O)CSc2nc3[nH]c(=O)n(C)c(=O)c3[nH]2)cc1" is strictly below 7 µM. Not fulfilled

Please indicate whether the reported IC50 of "Cn1c(=O)c2[nH]c(SCC(=O)c3ccc(Cl)cc3)nc2n(C)c1=O" is strictly below 7 µM. Not fulfilled

Please indicate whether the reported IC50 of "Cn1c(=O)[nH]c2nc(SCC(=O)c3ccc(Br)cc3)[nH]c2c1=O" is strictly below 7 µM. Not fulfilled

Please indicate whether the reported IC50 of "Cn1c(=O)[nH]c2nc(SC/C(=N/O)c3ccc(Cl)cc3)[nH]c2c1=O" is strictly below 7 µM. Fulfilled

Please indicate whether the reported IC50 of "COc1ccc(C(=O)CSc2nc3[nH]c(=O)n(C)c(=O)c3[nH]2)cc1" is strictly below 7 µM. Fulfilled

Please indicate whether the reported IC50 of "C/C(=N/O)c1ccc(NC(=O)CSc2nc3c([nH]2)c(=O)n(C)c(=O)n3C)cc1" is strictly below 7 µM. Fulfilled

Please indicate whether the reported IC50 of "COc1ccc(/C(CSc2nc3[nH]c(=O)n(C)c(=O)c3[nH]2)=N\O)cc1" is strictly below 7 µM. Fulfilled
